Source of measurements: ChEMBL document CHEMBL1142284

Below, each entry is listed with its recorded pIC50.
# Assay info: Inhibition of TNFalpha stimulated human NF-kappaB-mediated beta lactamase gene expression in HUVEC
# Type: cell-based
pIC50 here is simply -log10 of the concentration when that concentration is written in mol/L.

INSERT INTO results (smiles_string, numeric_readout) VALUES
  ('COc1cc(NS(=O)(=O)c2ccc(C)cc2N)c2ncccc2c1', 5.70),
  ('O=[N+]([O-])c1cc(C(F)(F)F)ccc1S(=O)(=O)Nc1cccc2cccnc12', 5.89),
  ('Cc1ccc2cccc(NS(=O)(=O)c3ccc(Br)s3)c2n1', 5.30);

Field pIC50 (entry `O=S1(=O)Nc2c(ccc3cccnc23)-c2cc(C(F)(F)F)ccc21` ) reads 5.92

Field pIC50 (entry `COc1cc2cccnc2c2c1-c1cc(C)ccc1S(=O)(=O)N2` ) reads 5.70

Field pIC50 (entry `O=[N+]([O-])c1ccccc1S(=O)(=O)Nc1cccc2cccnc12` ) reads 5.00

Field pIC50 (entry `Cc1cnc2c3c(ccc2c1)-c1ccccc1S(=O)(=O)N3` ) reads 5.09

----------
# Target entity: Transcription factor p65 (Homo sapiens)
# Assay info: Inhibition of TNF-alpha-stimulated human NF-kappaB p65 RelA subunit nuclear translocation in HUVEC
Calls of active or inactive are those of the source. The calls are words filed in the database; no cut-off is given here.
Outcome measure: Activity

INSERT INTO measurements (smiles_string, result) VALUES
  ('O=S1(=O)Nc2c(ccc3cccnc23)-c2cc(O)ccc21', 'inactive'),
  ('COc1cccc2nc(-c3cccs3)nc(NN3C(=O)C=C(C)C3=O)c12', 'inactive'),
  ('Cc1ccc2cccc(NS(=O)(=O)c3cc([N+](=O)[O-])ccc3C)c2n1', 'inactive'),
  ('COc1cc(NS(=O)(=O)c2ccc(C)cc2[N+](=O)[O-])c2nc(C)ccc2c1', 'inactive');

Field Activity (entry `COc1cc(NS(=O)(=O)c2ccc(C)cc2N)c2nc(C)ccc2c1` ) reads inactive

----------
Below, each entry is listed with its recorded Efficacy.
# Target entity: NF-kappa-B inhibitor alpha (Homo sapiens) (UniProt P25963)
# Sequence (P25963 whole entry, the tested form may be a part): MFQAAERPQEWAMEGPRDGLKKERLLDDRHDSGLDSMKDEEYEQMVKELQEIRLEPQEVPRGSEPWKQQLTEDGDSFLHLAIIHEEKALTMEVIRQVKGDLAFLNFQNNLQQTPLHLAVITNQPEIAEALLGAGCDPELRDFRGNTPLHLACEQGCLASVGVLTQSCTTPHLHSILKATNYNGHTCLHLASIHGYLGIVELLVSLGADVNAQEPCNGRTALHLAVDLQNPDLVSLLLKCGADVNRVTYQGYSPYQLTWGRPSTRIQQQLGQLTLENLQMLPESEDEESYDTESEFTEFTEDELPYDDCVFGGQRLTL
# Assay info: Induction of human IkappaBalpha stabilization in OCI-Ly3 cells by green light emiting IkappaBalpha-fused luciferase reporter gene assay relative to control
# Assay type: cell-based

Consider the worked cases shown below.
INSERT INTO assay_data (smiles_string, result) VALUES
  ('COc1cc(NS(=O)(=O)c2ccc(C)cc2)c2nc(C)ccc2c1', '150%'),
  ('Cc1ccc(S(=O)(=O)Nc2cccc3cccnc23)c([N+](=O)[O-])c1', '275%'),
  ('Cc1cnc2c3c(ccc2c1)-c1ccccc1S(=O)(=O)N3', '32%');

For `Cc1ccc2cccc(NS(=O)(=O)c3ccc(Br)s3)c2n1` on NF-kappa-B inhibitor alpha (Homo sapiens) (UniProt P25963), measured Efficacy was 22%

For `COc1cc(NS(=O)(=O)c2ccc(C)cc2[N+](=O)[O-])c2ncccc2c1` on NF-kappa-B inhibitor alpha (Homo sapiens) (UniProt P25963), measured Efficacy was 60%

For `O=S(=O)(Nc1cccc2cccnc12)c1ccc(Cl)s1` on NF-kappa-B inhibitor alpha (Homo sapiens) (UniProt P25963), measured Efficacy was 190%

----------
# Target entity: NF-kappa-B inhibitor alpha (Homo sapiens)
# Assay info: Induction of human IkappaBalpha stabilization in OCI-Ly3 cells by green light emiting IkappaBalpha-fused luciferase reporter gene assay relative to control
# Format: cell-based
Peptide text beside a SMILES is read from it. * marks the point of attachment. Cbz = O=C(OCc1ccccc1)*
Below, each entry is listed with its recorded Efficacy.

Consider the worked cases shown below.
INSERT INTO assay_data (compound, outcome_measure, result) VALUES
  ('COc1cc(NS(=O)(=O)c2ccc(C)cc2N)c2nc(C)ccc2c1', 'Efficacy', '23%'),
  ('O=S(=O)(Nc1cccc2cccnc12)c1ccc(Br)s1', 'Efficacy', '170%'),
  ('Cc1ccc2cccc(NS(=O)(=O)c3ccc(C(F)(F)F)cc3[N+](=O)[O-])c2n1', 'Efficacy', '50%'),
  ('Nc1ccccc1S(=O)(=O)Nc1cccc2cccnc12', 'Efficacy', '300%');

Field Efficacy (entry CC(C)C[C@@H](C=O)NC(=O)[C@H](CC(C)C)NC(=O)[C@H](CC(C)C)NC(=O)OCc1ccccc1 [MG-132] (Cbz-Leu-Leu-Leu-aldehyde) ) reads 100%

----------
# Target entity: NF-kappa-B inhibitor alpha (Homo sapiens)
# Assay info: Induction of human IkappaBalpha stabilization in OCI-Ly3 cells by green light emiting IkappaBalpha-fused luciferase reporter gene assay relative to control
# Format: cell-based
Outcome measure: Efficacy (%)
State just the number; it will be interpreted in %.

Consider the worked cases shown below.
INSERT INTO measurements (smiles_string, target_entity, numeric_readout) VALUES
  ('COc1ccc2c(c1)-c1ccc3cccnc3c1NS2(=O)=O', 'NF-kappa-B inhibitor alpha (Homo sapiens)', 20),
  ('COc1cc2cccnc2c2c1-c1cc(C)ccc1S(=O)(=O)N2', 'NF-kappa-B inhibitor alpha (Homo sapiens)', 34),
  ('O=S(=O)(Nc1cccc2cccnc12)c1cccs1', 'NF-kappa-B inhibitor alpha (Homo sapiens)', 250);

For `Cc1ccc([N+](=O)[O-])cc1S(=O)(=O)Nc1cccc2cccnc12` on NF-kappa-B inhibitor alpha (Homo sapiens), measured Efficacy was 18

For `O=S1(=O)Nc2c(ccc3cccnc23)-c2ccccc21` on NF-kappa-B inhibitor alpha (Homo sapiens), measured Efficacy was 120

For `O=S1(=O)Nc2c(ccc3cccnc23)-c2cc(Cl)ccc21` on NF-kappa-B inhibitor alpha (Homo sapiens), measured Efficacy was 66

For `O=[N+]([O-])c1cc(C(F)(F)F)ccc1S(=O)(=O)Nc1cccc2cccnc12` on NF-kappa-B inhibitor alpha (Homo sapiens), measured Efficacy was 200

For `Cc1ccc2cccc(NS(=O)(=O)c3ccccc3N)c2n1` on NF-kappa-B inhibitor alpha (Homo sapiens), measured Efficacy was 250

For `COc1cc2ccc(C)nc2c2c1-c1cc(C)ccc1S(=O)(=O)N2` on NF-kappa-B inhibitor alpha (Homo sapiens), measured Efficacy was 300

For `O=[N+]([O-])c1ccc(S(=O)(=O)Nc2cccc3cccnc23)cc1` on NF-kappa-B inhibitor alpha (Homo sapiens), measured Efficacy was 560

For `O=[N+]([O-])c1ccccc1S(=O)(=O)Nc1cccc2cccnc12` on NF-kappa-B inhibitor alpha (Homo sapiens), measured Efficacy was 620

----------
# Assay info: Inhibition of TNFalpha stimulated human NF-kappaB-mediated beta lactamase gene expression in HUVEC
# Format: cell-based
Below, each entry is listed with its recorded IC50.
State just the number; it will be interpreted in µM.

Consider the worked cases shown below.
INSERT INTO assay_data (smiles_string, outcome_measure, numeric_readout) VALUES
  ('O=S(=O)(Nc1cccc2cccnc12)c1ccc(Br)s1', 'IC50', 3.4),
  ('O=S1(=O)Nc2c(ccc3cccnc23)-c2ccccc21', 'IC50', 3.4),
  ('Cc1ccc(S(=O)(=O)Nc2cccc3cccnc23)c([N+](=O)[O-])c1', 'IC50', 6),
  ('Cc1ccc2cccc(NS(=O)(=O)c3cccc([N+](=O)[O-])c3)c2n1', 'IC50', 1),
  ('Cc1ccc2cccc(NS(=O)(=O)c3ccccc3[N+](=O)[O-])c2n1', 'IC50', 6);

Field IC50 (entry `Cc1ccc2ccc3c(c2n1)NS(=O)(=O)c1ccc(C(F)(F)F)cc1-3` ) reads 3.6

----------
# Assay info: Inhibition of TNFalpha stimulated human NF-kappaB-mediated beta lactamase gene expression in HUVEC
# Type: cell-based
Outcome measure: pIC50
pIC50 here is simply -log10 of the concentration when that concentration is written in mol/L.

Consider the worked cases shown below.
INSERT INTO assay_data (smiles_string, numeric_readout) VALUES
  ('Cc1ccc2cccc(NS(=O)(=O)c3ccc(C(F)(F)F)cc3[N+](=O)[O-])c2n1', 4.89),
  ('COc1ccc2c(c1)-c1ccc3ccc(C)nc3c1NS2(=O)=O', 5.49),
  ('Cc1ccc2ccc3c(c2n1)NS(=O)(=O)c1ccc(O)cc1-3', 5.17);

Below: the item to evaluate.
Field pIC50 (entry `O=S(=O)(Nc1cccc2cccnc12)c1ccccc1` ) reads 5.10

----------
# Assay info: Inhibition of TNFalpha stimulated human NF-kappaB-mediated beta lactamase gene expression in HUVEC
# Assay type: cell-based
Peptide text beside a SMILES is read from it. * marks the point of attachment. Cbz = O=C(OCc1ccccc1)*
Outcome measure: IC50 (µM)
State just the number; it will be interpreted in µM.

Consider the worked cases shown below.
INSERT INTO measurements (compound, numeric_readout) VALUES
  ('COc1ccc2c(c1)-c1ccc3cccnc3c1NS2(=O)=O', 1.3),
  ('COc1cc2ccc(C)nc2c2c1-c1cc(C)ccc1S(=O)(=O)N2', 1.1),
  ('COc1cccc2nc(-c3cccs3)nc(NN3C(=O)C=C(C)C3=O)c12 [AS-602868]', 2);

Field IC50 (entry `O=S1(=O)Nc2c(ccc3cccnc23)-c2cc(F)ccc21` ) reads 1.8

Field IC50 (entry CC(C)C[C@@H](C=O)NC(=O)[C@H](CC(C)C)NC(=O)[C@H](CC(C)C)NC(=O)OCc1ccccc1 [MG-132] (Cbz-Leu-Leu-Leu-aldehyde) ) reads 0.6

Field IC50 (entry `O=[N+]([O-])c1ccc(S(=O)(=O)Nc2cccc3cccnc23)cc1` ) reads 5

Field IC50 (entry `Cc1ccc2cccc(NS(=O)(=O)c3ccc(Cl)s3)c2n1` ) reads 1.3

Field IC50 (entry `Cc1ccc2cccc(NS(=O)(=O)c3ccccc3N)c2n1` ) reads 5.5

Field IC50 (entry `Cc1ccc2c(c1)-c1ccc3cccnc3c1NS2(=O)=O` ) reads 0.8
